- study_target: T1, Goat anti-Human Kappa
- T1 construct: Positive control of the ELISA; also called biotinylated goat anti-human kappa light chain
- assay_comment: ELISA, positive control; further: test concentration or dose not given here
measured_attribute: optical density

Quick one: optical density for 367_C11 (antibody, V domains shown) VH: EVQLLESGGGLVQPGGSLRLSCAASGFTFDSYSMNWVRQAPGKGLEWVSSINYNSGYTGYADSVKGRFTISRDNSKNTLYLQMNSLRAEDTAVYYCARSANWHDTHLDYWGQGTLVTVSS VL: DIQMTQSPSSLSASVGDRVTITCRASQSILSYLNWYQQKPGKAPKLVIYAATSRHSGVPSRFSGSGSGTDFTLTISSLQPEDFATYYCQQSYNTPLTFGGGTKVEIK ?
3.45 OD

Quick one: optical density for 373_G12 (antibody, V domains shown) VH: EVQLLESGGGLVQPGGSLRLSCAASGFTFSSYSMNWVRQAPGKGLEWVSNINYNGGYTSYADSVKGRFTISRDNSKNTLYLQMNSLRAEDTAVYYCARSANWHDTALDYWGQGTLVTVSS VL: DIQMTQSPSSLSASVGDRVTITCRASQSILSYLNWYQQKPGKAPKLLIYATTSLASGVPSRFSGSGSGTDFTLTISSLQPEDFATYYCQQSYNSPLTFGGGTKVEIK ?
3.26 OD

Quick one: optical density for 370_E09 (antibody, V domains shown) VH: EVQLLESGGGLVQPGGSLRLSCAASGFTFDDSSMHWVRQAPGKGLEWVSNINYNGGYTGYADSVKGRFTISRDNSKNTLYLQMNSLRAEDTAVYYCAKSANWHDTALDYWGQGTLVTVSS VL: DIQMTQSPSSLSASVGDRVTITCRASQSILSYVNWYQQKPGKAPKLVIYAATSRASGVPSRFSGSGSGTDFTLTISSLQPEDFATYYCQQSYELPLTFGGGTKVEIK ?
3.6 OD

Quick one: optical density for 368_D01 (antibody, V domains shown) VH: EVQLLESGGGLVQPGGSLRLSCAASGFTFSSYGMHWVRQAPGKGLEWVANINYNGGYTSYADSVKGRFTISRDNSKNTLYLQMNSLRAEDTAVYYCARSANWHDTALDYWGQGTLVTVSS VL: DIQMTQSPSSLSASVGDRVTITCRASQSILSYLNWYQQKPGKAPKLVIYAATSRASGVPSRFSGSGSGTDFTLTISSLQPEDFATYYCQQSDSTPLTFGGGTKVEIK ?
3.65 OD

Quick one: optical density for 369_G01 (antibody, V domains shown) VH: EVQLLESGGGLVQPGGSLRLSCAASGFTFSSYSMNWVRQAPGKGLEWVSNINYNSGYKSYADSVKGRFTISRDNSKNTLYLQMNSLRAEDTAVYYCARSANWHDTALDYWGQGTLVTVSS VL: DIQMTQSPSSLSASVGDRVTITCRASQSILSYVNWYQQKPGKAPKLLIYAATSRASGVPSRFSGSGSGTDFTLTISSLQPEDFATYYCQQSYSSPLTFGGGTKVEIK ?
3.44 OD

Quick one: optical density for 369_F01 (antibody, V domains shown) VH: EVQLLESGGGLVQPGGSLRLSCAASGFTFSSYGMNWVRQAPGKGLEWVSGINYNGGYKSYADSVKGRFTISRDNSKNTLYLQMNSLRAEDTAVYYCARSANWHDTALDYWGQGTLVTVSS VL: DIQMTQSPSSLSASVGDRVTITCRASQSILTYVNWYQQKPGKAPKLLIYAATSRASGVPSRFSGSGSGTDFTLTISSLQPEDFATYYCQQSYELPLTFGGGTKVEIK ?
3.47 OD

Quick one: optical density for 367_D10 (antibody, V domains shown) VH: EVQLLESGGGLVQPGGSLRLSCAASGFTFDSYGMNWVRQAPGKGLEWVSNINYNGGYTSYADSVKGRFTISRDNSKNTLYLQMNSLRAEDTAVYYCARSANWHDTALDYWGQGTLVTVSS VL: DIQMTQSPSSLSASVGDRVTITCRASQSIISYLNWYQQKPGKAPKLVIYAATSRASGVPSRFSGSGSGTDFTLTISSLQPEDFATYYCQQSYDTPLTFGGGTKVEIK ?
3.38 OD
